Reference source for all entries: patent US20030206891A1

# TESTED_ON: FKBP (Homo sapiens, UniProt P62942)
# Construct: made in house
# Sequence (P62942 whole entry): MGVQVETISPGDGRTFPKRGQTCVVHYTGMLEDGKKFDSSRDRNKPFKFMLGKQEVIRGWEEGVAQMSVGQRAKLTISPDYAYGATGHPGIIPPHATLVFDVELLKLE
# ASSAY_EXPLANATION: Competitive fluorescence polarization (FP) assay of binding to FKBP with fluoresceinated FK506 probe AP1491
# REPORTED_CONDITIONS: C24 oxime experiment
VALUE_TYPE: fold loss in affinity (=IC50/IC50 of rapamycin)
Hey, just send me the number, nothing else.

Known fold loss in affinity (=IC50/IC50 of rapamycin) results, listed for orientation:
Qu. Could you share what fold loss in affinity (=IC50/IC50 of rapamycin) was measured for COC1CC2CCC(C)C(O)(O2)C(=O)C(=O)N2CCCCC2C(=O)OC(C(C)CC2CCC(O)C(OC)C2)CC(=NOCC(=O)O)C(C)C=C(C)C(O)C(OC)C(=O)C(C)CC(C)C=CC=CC=C1C (stereo not shown) [AP1687] , tested on FKBP (Homo sapiens, UniProt P62942)?
Ans. 813

Qu. Query the reported fold loss in affinity (=IC50/IC50 of rapamycin) for FKBP (Homo sapiens, UniProt P62942); item: COC1CC2CCC(C)C(O)(O2)C(=O)C(=O)N2CCCCC2C(=O)OC(C(C)CC2CCC(O)C(OC)C2)CC(=NOCC(=O)O)C(C)C=C(C)C(O)C(OC)C(=O)C(C)CC(C)C=CC=CC=C1C (stereo not shown) [AP1686]
Ans. 1620

Qu. Give fold loss in affinity (=IC50/IC50 of rapamycin) (FKBP (Homo sapiens, UniProt P62942)) of the following compound: COC1CC2CCC(C)C(O)(O2)C(=O)C(=O)N2CCCCC2C(=O)OC(C(C)CC2CCC(O)C(OC)C2)CC(=NOCC(N)=O)C(C)C=C(C)C(O)C(OC)C(=O)C(C)CC(C)C=CC=CC=C1C (single isomer, unassigned) [AP1730]
Ans. 40.5

More entries:
Qu. Requested read-out fold loss in affinity (=IC50/IC50 of rapamycin), target or system FKBP (Homo sapiens, UniProt P62942), entry COC1CC2CCC(C)C(O)(O2)C(=O)C(=O)N2CCCCC2C(=O)OC(C(C)CC2CCC(O)C(OC)C2)CC(=NOCC(N)=O)C(C)C=C(C)C(O)C(OC)C(=O)C(C)CC(C)C=CC=CC=C1C (single isomer, unassigned) [AP1729]
Ans. 304
